ASSAY_SYSTEM: T1, HLA-A2 (HLA-A*0201) (human)
T1 construct: MHC class I molecule to which the peptide is added in the assembly assay (T2 cells); folded molecules are immunoprecipitated with conformation-dependent antibody
METHOD: assembly assay: HLA-A2 stabilisation, T2 cells, IP, IEF gel
RECORDED_METRIC: C50

Solved cases (6 shown):
LMLGEFLKL (Analogue of survivin96-104 (Sur1) with T at position 2 replaced by M; also called modified survivin96-104) [Sur1M2]    1 µM
FLKLDRERA [Sur6 (Survivin101-109)]    30 µM
TLPPAWQPFL [Sur8 (Survivin5-14)]    30 µM
LLLGEFLKL (Analogue of survivin96-104 (Sur1) with T at position 2 replaced by L) [Sur1L2]    1 µM
LTLGEFLKL (also called Sur96-104) [Sur1 (Survivin96-104)]    > 100 µM
ELTLGEFLKL (also called Sur95-104) [Sur9 (Survivin95-104)]    10 µM

# context switch: different binder, same C50
What measured C50 goes with KVRRAIEQL [Sur3 (Survivin130-138)] ?
> 100 µM
